experiment: PPC-1 cell viability loss under TRAIL – PPC-1 cells, ATPLite luminescence, uHTS, TRAIL potentiator project, primary screen (AID 1443); settings: PPC-1 cells + TRAIL; at 4 µM unless noted;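 also: plate controls were cells with TRAIL plus DMSO for no effect and medium-only wells lacking cells for full effect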
The whole screen tested about 220,000 compounds, of which about 880 (0.4%) were called active.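 The calls were made as follows: active = cell killing above 50% in the first pass at 4 µM, then a duplicate retest at 5 µM averaging 50% or more; inactive = the rest.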 This excerpt belongs to a sample that is enriched for actives.
// allowed return values: label 1 for active, label 0 for inactive

Exercise: Hi team, can someone confirm the assay call for Cc1[nH]n(-c2ccccc2)c(=O)c1/C=N/NC(=O)c1ccoc1C ?
Solution: label 0

Exercise: What did the test return for COc1ccc(C2=NOC3(CC(=O)N(c4ccc(C)cc4)C3=O)C2)cc1 (stereo not given) ?
Solution: label 0

Exercise: Recorded call for Cc1ccc(C(=O)NNC2=Nc3cc([N+](=O)[O-])ccc3OC2)cc1 ?
Solution: label 0

Exercise: What classification did Cc1ccc(/C=N/NC(=O)CSc2ccccn2)o1 end up with in this test?
Solution: label 0

Exercise: Which outcome did this test record for the compound O=c1c(-c2ccccc2)cnc2n1CCS2 ?
Solution: label 0

Exercise: Please state the recorded outcome for this compound: COc1cc(/C=N/NC(=O)c2ccccc2)ccc1OS(=O)(=O)c1ccccc1
Solution: label 0

Exercise: Hello, I am checking results. What call was entered for Cc1ccc(-n2[nH]c(C)c(/C=N/NC(=O)c3cccc([N+](=O)[O-])c3)c2=O)cc1C ?
Solution: label 1

Exercise: Look up the recorded call for O=C(N/N=C/c1cc([N+](=O)[O-])ccc1O)/C(=C\c1cccs1)NC(=O)c1ccccc1 in this test.
Solution: label 0

Exercise: Just curious, what result did Cc1ccc(C(=O)N/C(=C\c2ccco2)C(=O)NC2CCS(=O)(=O)C2)cc1 (stereo not given) get here?
Solution: label 0

Exercise: For CCCCCC(O)c1cccc(OCc2ccc3ccccc3n2)c1 (stereo not given) , which call appears in the assay record?
Solution: label 0

Exercise: # lookup: test call for O=C(OCC1O[C@@H](OC(=O)c2cc(O)c(O)c(O)c2)[C@@H](OC(=O)c2cc(O)c(O)c(O)c2)[C@@H](OC(=O)c2cc(O)c(O)c(O)c2)[C@@H]1OC(=O)c1cc(O)c(O)c(O)c1)c1cc(O)c(O)c(O)c1 (stereo not given in full)
Solution: label 0

Exercise: What did this assay record as the result for Nc1nc(NCC2CCCO2)nc(Nc2ccccc2F)c1[N+](=O)[O-] (stereo not given) ?
Solution: label 0

Exercise: What did the test return for Cn1c(=NC(=O)CSCC(=O)N2CCCCC2)sc2ccccc21 ?
Solution: label 0

Exercise: Hi team, can someone confirm the assay call for COc1ccc(C(=O)Nc2ccccc2C(=O)N/N=C/c2ccc(O)c(OC)c2)cc1 ?
Solution: label 1

Exercise: Status in this test for COc1cccc(/C=N/NC(=O)c2cccc([N+](=O)[O-])c2)c1OS(=O)(=O)c1ccc(C)cc1 ?
Solution: label 0

Exercise: Query: recorded result category for Oc1ccc(-c2[nH]ncc2-c2nc3ccccc3s2)c(O)c1 in this test
Solution: label 0

Exercise: So what was the verdict on O=C(CSc1nnc(C2CC2)n1Cc1ccccc1)Nc1cccnc1Cl in this test?
Solution: label 0

Exercise: Each compound tested received a call. Report the one for Cn1c(=NC(=O)CSCC(=O)N2CCOCC2)sc2ccccc21 .
Solution: label 0

Exercise: Per the assay record, what outcome was assigned to CC1(C)COC(c2cccn2Cc2ccccc2Cl)=N1 ?
Solution: label 0

Exercise: Hi, sorry to bother you, what did the test record for COc1ccc2cc(-c3[nH]ncc3CNCCn3nc(C)cc3C)ccc2c1 ?
Solution: label 0

// provenance: PubChem BioAssay AID1443
